EC50 reference
- test_system: T1, VP1 pentamer of BKV genotype II (recombinant) (BK virus genotype II, UniProt P14996 30-300)
- T1 construct: also called GII; VP1 geno II pentamer; not shown: N-terminal His-tag of pESPRIT002; C-terminal biotin acceptor peptide (BAP) of pESPRIT002
- protocol: ELISA, coated VP1 pentamer
quantity_name: EC50 (mg/L)

| binder | unit_name | readout_relation | endpoint_result |
| --- | --- | --- | --- |
| antibody B9P6 (antibody, V domains shown) VH: EVQLVESGGGLVQPGGSLRLSCAASGFTFRSYTMDWVRQAPGKGLEWVSCISGSSNHKYYADSVRGRFTISRDNAKNSLFLQMNSLRAEDSAVYYCAREDDILTPLYGMDVWGPGTTVTVSS VL: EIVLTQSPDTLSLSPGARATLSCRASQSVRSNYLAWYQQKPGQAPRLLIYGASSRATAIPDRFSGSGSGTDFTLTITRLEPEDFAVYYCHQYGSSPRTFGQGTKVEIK | mg/L | = | 0.035 |
| antibody C11P1 (antibody, V domains shown) VH: QVQLQESGPGLVKPSETLSLTCTVSGGSIRNSYWSWIRQPPGKGLEWIGYIYYTGTTNSNPSLKSRATISVHMSQNQISLKLNSVTPADTAVYYCAQGGGSGDLHYWGQGTLVTVSS VL: NFMLTQPASVSGSPGQSITISCTGTRSDVGGYNYVSWYQQHPGKAPKLMIYDISSRPSGVSNRFSASKSGNTASLTISGLQAEDEADYYCISFATGYTWVFGGGTRLTVL | mg/L | = | 0.045 |
| antibody B9P4 (antibody, V domains shown) VH: EVQLVESGGGVVQPGRSLRLSCAASGFTFSSYGMHWVRQAPGKGLEWVAVISKDGSNKYEADFVKGRFTISRDNSKNTLYLQMNSLRAEDTAVYYCAKIPLRRYSDSGDYSSGDFWGQGTLVTVSS VL: DVVMTQSPLSLTVTLGQPASISCRSSENLVYSDGNTYLSWFQQRPGQSPRRLIYKVSTRDSGVPDRFSGSGSGTDFTLKISRVEAEDVGVYYCMQTTHWPPLTFGGGTKVEIK | mg/L | ≥ | 7 |
| antibody E7P5 (antibody, V domains shown) VH: QVQLQESGPGLVKPSETLSLTCTVSGGSIRNSYWSWIRQSPGKGLEWIGYIYYTGSTNSNPSLKSRLTVSVHMSQNQISLKLNSVTPADTAVYYCAQGGGSGDLHYWGQGTLVTVSS VL: QSALTQPASVSGSPGQSITISCTGTRSDVGGYNYVSWYQQHPGKAPKLIIYDISSRPSGVSNRFSASKSGNTASLTISGLQAEDEADYYCISFATGYTWVFGGGTSLTVL | mg/L | = | 0.055 |
| antibody B10P1 (antibody, V domains shown) VH: EVQLSESGGGLVQPGGSLRLSCAASGFTFSSYAMSWVRQAPGKGLEWVSSLTGSGGSTYYRDSVKGRFTIFRDNSKKTLYMQMNSLRAEDTAVYYCAKEGAYSYDFWYFDLWGRGTLVTVSS VL: EIVLTQSPGTLSLSPGERATLSCRASQTVSGNYLAWYQQKPGQSPSLLIYGASSRATGIPDRFTGSGSGTDFTLTISRLEPADFAVYYCQQYGRPLTFGGGTKVDIK | mg/L | = | 2.8 |
